I'd appreciate it if you could supply ΔTm values for the items below.
- MEASURED_ON: EthR protein (Mycobacterium tuberculosis, UniProt P9WMC1)
- Sequence (P9WMC1 whole entry, looked up): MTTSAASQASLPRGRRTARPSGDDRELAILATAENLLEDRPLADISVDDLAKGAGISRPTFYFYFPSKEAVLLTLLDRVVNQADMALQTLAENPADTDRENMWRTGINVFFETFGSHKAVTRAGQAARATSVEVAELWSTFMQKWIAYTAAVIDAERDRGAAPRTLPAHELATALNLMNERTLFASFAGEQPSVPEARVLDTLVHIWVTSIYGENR
- PROCEDURE_DETAILS: TSA test (Thermal Shift Assay), fluorescence with Sypro Orange; also: test concentration or dose not given here
- Format: binding, M. tuberculosis
- TEST_SETTINGS: melting temperature shift of EthR with ligand vs protein alone
Record the value in °C, omitting the unit from your answer.

// query Which ΔTm reading was recorded for the molecule Cc1nc(-c2ccc(S(=O)(=O)NCC(F)(F)C(F)(F)C(F)(F)F)cc2)cs1 [Compound 28] ?
// result 7.3

// query Which ΔTm reading was recorded for the molecule Cc1nc(-c2ccc(S(=O)(=O)NCCC(C)(C)C)cc2)cs1 [Compound 23] ?
// result 2.3

// query Which ΔTm reading was recorded for the molecule O=S(=O)(NCC#Cc1ccc(S(=O)(=O)NCCC(F)(F)F)cc1)c1ccccc1 [Compound 106] ?
// result 3.3

// query Which ΔTm reading was recorded for the molecule CS(=O)(=O)NCC#Cc1ccc(S(=O)(=O)NCCC(F)(F)F)cc1 [Compound 108] ?
// result 1.4

====

- PROCEDURE_DETAILS: Measurement of the log D
- Format: physicochemical
- TEST_SETTINGS: octanol/PBS (1/1); octanol/PBS at pH 7.4, triplicate
PROPERTY: logD at 2 h
// return a plain number; no unit text

// query Which logD at 2 h reading was recorded for the compound O=C(NCCC(F)(F)F)c1ccc(-c2csc(-c3ccncc3)n2)cc1 ?
// result 3.07

// query Which logD at 2 h reading was recorded for the compound CC(C)OC(=O)Cc1nc(-c2ccc(S(=O)(=O)NCCC(F)(F)F)cc2)cs1 ?
// result 3.76

// query Which logD at 2 h reading was recorded for the compound CC(C)Cc1nc(-c2ccc(C(=O)NCCC(F)(F)F)cc2)cs1 ?
// result 3.91

// query Which logD at 2 h reading was recorded for the compound CCc1cc(-c2nc(-c3ccc(C(=O)NCCC(F)(F)F)cc3)cs2)ccn1 ?
// result 3.95

// query Which logD at 2 h reading was recorded for the compound Cc1nc(-c2ccc(C(=O)NCCC(F)(F)F)cc2)cs1 ?
// result 2.82

// query Which logD at 2 h reading was recorded for the compound Cc1nc(-c2ccc(S(=O)(=O)NCCC(C)C)cc2)cs1 ?
// result 3.55

// query Which logD at 2 h reading was recorded for the compound Cc1nc(-c2ccc(S(=O)(=O)NCCC(F)(F)F)cc2)cs1 ?
// result 3.12

====

- MEASURED_ON: UniProtKB P9WMC1
- PROCEDURE_DETAILS: TSA test (Thermal Shift Assay), fluorescence with Sypro Orange
- Format: binding, M. tuberculosis
- TEST_SETTINGS: melting temperature shift of EthR with ligand vs protein alone
Simple rule here: ΔTm less than 6 °C is t, otherwise f.

// query For CC(C)OC(=O)Cc1nc(-c2ccc(C(=O)NCCC(F)(F)F)cc2)cs1 [Compound 53] , is the recorded ΔTm below the cut-off of 6 °C?
// result f

// query For CC(C)CCc1cn(-c2ccc(C(=O)NCCC(F)(F)F)cc2)nn1 [Compound 93] , is the recorded ΔTm below the cut-off of 6 °C?
// result t

// query For CC(C)OC(=O)c1nc(-c2ccc(C(=O)NCCC(F)(F)F)cc2)cs1 [Compound 55] , is the recorded ΔTm below the cut-off of 6 °C?
// result f

// query For CC(C)CCNS(=O)(=O)c1ccc(-c2csc(CC(N)=O)n2)cc1 [Compound 21] , is the recorded ΔTm below the cut-off of 6 °C?
// result t
